- System: PC-3 prostate
- experiment: NCI-60 one-dose screen, 48 h (100 = growth as untreated, 0 = no growth, -100 = all killed)
- assayConditions: 10 µM unless noted
This is part of a sample that, as a whole, favours compounds with a hit. Of some 83,000 tested, about 20% had one in any assay.
# label = Met if growth < 60% else Not met

molecule	groupLabel
O=CN/N=C/c1ccc(Cl)c([N+](=O)[O-])c1	Met
COc1ccc2c(c1)cn1c3ccc(O)cc3[nH]c(=O)c21	Met
CC(=O)Nc1nc(C)c(C(=O)NNC(=O)Nc2ccccc2)s1	Not met
O=C(O)c1ccc(-c2nn(-c3ccc(C(=O)O)cc3)cc2CNc2ccc(Br)cc2)cc1	Not met

###

- Tested on: SF-268 CNS
- experiment: NCI-60 one-dose screen, 48 h (100 = growth as untreated, 0 = no growth, -100 = all killed)
- assayConditions: 10 µM unless noted
About 83,000 compounds went through this panel and 20% of them were active in at least one assay; those are over-represented in the sample as a whole.

compound	growth, %
CN1CCN(Cc2ccc(NC(=O)c3ccc(C#Cc4c(N)ncc5ccc(F)cc45)cc3)cc2C(F)(F)F)CC1	-21.1
CCCCCCCCCCCCCCCCC(=O)O.CCCCCCCCCCCCCCCCCC(=O)O.CCCCCCCCCCCCCCCCCC(=O)O.CCCCCCCCCCCCCCCCCC(=O)O.CCCCCCCCCCCCCCCCCC(=O)O.CO[CH-]OC12COC1CC(O)C1(C)C(O)C(OC(C)O)C3=C(C)C(OC(=O)C(O)C([NH-])c4ccccc4)CC(O)(C(OC(=O)c4ccccc4)C21)C3(C)C.[Cu+].[Zn].[Zn].[Zn].[Zn].[Zn] (centres undefined)	47.6
COC1=CC(c2ccc[nH]2)=N/C1=C\c1[nH]c(C)c(C(=O)CCCCC(=O)NC(C)(C)C)c1C	60.2
CC(=O)Nc1ccc(C(=O)/C=C/c2ccc(N(C)C)cc2)cc1	93.7
CCCCCCCCCCCCCCCCNC(=O)Nc1ccc(C)c(NC(=O)NCCCCCCCCCCCCCCCC)c1	114
Nc1ncn([C@@H]2O[C@H](CO)[C@@H](O)C2(F)F)c(=O)n1	65.4
C/C=C(/C)C(=O)OC1C=C(CO)C(=O)C(OC(=O)C2(C)OC2C)C1C(C)C (centres undefined)	13.3
O=C(/C=C1\C(=O)N(Cc2ccccc2)c2ccccc21)c1ccc(OCCN2CCCCC2)cc1	73.9
CCC(CCCN1C(=O)c2ccccc2C1=O)Nc1cc(OC)cc2cccnc12 (centres undefined)	119
COC(=O)CC(=O)C(=O)OC	97.4
COc1cc(C(=O)Nc2ccc(N(C)C)cc2)cc(OC)c1OC	99.1
CCCCCCCCC(=O)Nc1ccc(O)cc1	92
CC(O)C(N)=O (centres undefined)	103
Nc1ccc(N=Nc2ccccc2)c2cc(S(=O)(=O)O)ccc12	98.8
COc1cc(N2C(=O)C=CC2=O)ccc1N1C(=O)C=CC1=O	105
CC(=O)Nc1nc(C)c(C(=O)NNC(=O)Nc2ccccc2)s1	99.8
N=C(c1ccccc1)N(Cc1ccccc1)Cc1ccccc1	103
COc1cc2c(cc1OC)C(Cc1cc(OC)c(OC)cc1[N+](=O)[O-])=NCC2	90
NC(=O)c1c(Nc2ccccc2)nn2cc(-c3nc4ccccc4s3)c(N)nc12	95.6

###

- Tested on: HOP-92 NSCLC
- experiment: NCI-60 one-dose screen, 48 h (100 = growth as untreated, 0 = no growth, -100 = all killed)
- assayConditions: 10 µM
The panel holds about 83,000 compounds, 20% with a hit somewhere; the sample as a whole holds those more often. Calls of active or inactive are those of the source. The calls were made as follows: active = growth percent below 10; inactive = the rest.

molecule	targetOrSystem	growth
CCOC(=O)c1cc(C(=O)c2ccc(Br)cc2)n2cc(C)cc(C)c12	HOP-92 NSCLC	77.9% (inactive)
O=S(=O)(O)CCI	HOP-92 NSCLC	103% (inactive)
CCC(CCCN1C(=O)c2ccccc2C1=O)Nc1cc(OC)cc2cccnc12 (stereo unspecified)	HOP-92 NSCLC	72.4% (inactive)
N#Cc1c(N)nc(Nc2nc3ccccc3[nH]2)nc1-c1ccc(Cl)cc1	HOP-92 NSCLC	78.4% (inactive)
C#CCCCCCCC[C@@H]1OC(=O)[C@H]([C@@H](C)CC)NC(=O)[C@H]([C@@H](C)CC)NC(=O)CC(=O)[C@@H]1C	HOP-92 NSCLC	78.1% (inactive)
[2H]c1nc(=Nc2cc(NC(=O)C=C)c(N(C)CCN(C)C)cc2OC)[nH]c(-c2cn(C([2H])([2H])[2H])c3ccccc23)c1[2H]	HOP-92 NSCLC	22.9% (inactive)
OCC(O)C(O)CC1SCCS1 (stereo unspecified)	HOP-92 NSCLC	104% (inactive)
O=C(Nc1cccc(Cn2c(=O)[nH]c3ccc(Oc4ncccn4)cc3c2=O)c1)c1cc(Cl)cc(Cl)c1	HOP-92 NSCLC	44.1% (inactive)
Cc1ccc(CC(=O)O)c(C)c1	HOP-92 NSCLC	98.5% (inactive)
CCCCCCCCc1ccc(OCCOCC[N+](C)(C)CC)cc1 (tested in a mixture with another compound)	HOP-92 NSCLC	6.23% (active)
NC(N)=N/N=C/c1cccc(Br)c1	HOP-92 NSCLC	88.9% (inactive)
Nc1ccc(N=Nc2ccccc2)c2cc(S(=O)(=O)O)ccc12	HOP-92 NSCLC	94.5% (inactive)
O=S(=O)(O)c1ccc2c(c1)Sc1cc(S(=O)(=O)O)ccc1O2	HOP-92 NSCLC	98.5% (inactive)
Oc1ccc2ccccc2c1/C=N\Nc1ccccn1	HOP-92 NSCLC	-15.1% (active)
N/C(=N\O)c1ccncc1	HOP-92 NSCLC	107% (inactive)
COc1ccc(-c2nc(N)n(C(=S)Nc3ccccc3)n2)cc1	HOP-92 NSCLC	85.8% (inactive)
CCCNC(=O)Oc1ccc(/C(=C(/C)Cc2ccc(OC)cc2)c2ccc(OCCN3CCCCC3)cc2)cc1	HOP-92 NSCLC	61% (inactive)
Cc1cc2c(-c3nc4ccccc4n3C)c(O)c(O)cc2c(O)c1-c1c(C)cc2c(-c3nc4ccccc4n3C)c(O)c(O)cc2c1O	HOP-92 NSCLC	52.1% (inactive)
O=c1oc2ccc3ccccc3c2cc1-c1ccnc2[nH]c(=S)[nH]c(=O)c12	HOP-92 NSCLC	88.3% (inactive)
COc1ccc2nc3cc(Cl)ccc3c(NCCCNC(C)=O)c2c1	HOP-92 NSCLC	50.4% (inactive)
CCN(CC)CCCNc1c2ccc(Cl)cc2nc2ccc(OC)cc12	HOP-92 NSCLC	-27.8% (active)

###

- Tested on: IGROV1 ovarian
- experiment: NCI-60 one-dose screen, 48 h (100 = growth as untreated, 0 = no growth, -100 = all killed)
- assayConditions: 10 µM unless noted
The panel holds about 83,000 compounds, 20% with a hit somewhere; the sample as a whole holds those more often. The source made the active and inactive calls. The calls were made as follows: active = growth percent below 10; inactive = the rest.
# growth listing for each entry below

compound	growth
O=C1/C(=C\c2cn(-c3nc(N4CCOCC4)nc(N4CCOCC4)n3)c3ccccc23)c2ccccc2N1c1c(Cl)cccc1Cl	36.2% (inactive)
CCCC(CCC)Oc1ccc(CCCC2=C(O)c3ccccc3C(=O)C2=O)cc1	46.7% (inactive)
COC1=C(OC)C(=O)c2ccccc2C1=O	104% (inactive)
COc1ccc2c(N)ncc(C#Cc3cc(C(=O)Nc4ccc(CN5CCN(C)CC5)c(C(F)(F)F)c4)cnc3C)c2c1	-71.6% (active)
CC1CCCCC[N+]12CCCC2 (configuration not stated)	102% (inactive)
COC(=O)/C=C1/CCCCC1(C)C(=O)OC (configuration not stated)	107% (inactive)
COc1ccc(C(O)(c2ccccc2)C(C(=O)O)c2ccccc2)cc1 (configuration not stated)	104% (inactive)
Cn1cnc2nc[nH]c2c1=S	113% (inactive)
COc1ccc(Cn2cc3c(c2-c2ccc(OC)cc2)CCc2cnoc2-3)cc1	-2.82% (active)
CC(=O)CCS(=O)c1ccccc1 (configuration not stated)	105% (inactive)
COc1cc(-c2cc3cnccc3c3nc(N)c4ccncc4c23)cc(OC)c1OC	15% (inactive)
CC(=O)Nc1nc(C)c(C(=O)NNC(=O)Nc2ccccc2)s1	141% (inactive)
COc1ccc(-c2cc(C#N)c(NNC(C)=O)[nH]2)cc1	101% (inactive)
CCC(C)C1NC(=O)C(CCCCN)NC(=O)C(CCCCN)NC(=O)C(CC(C)C)NC(=O)C(CCCCN)NC(=O)C(C(C)CC)NC(=O)C(C(C)C)NC(=O)C(C(C)CC)NC(=O)C(CCCCN)NC(=O)C(CCCCN)NC(=O)C(C)NC(=O)C(CCCCN)NC(=O)C(CC(C)C)NC1=O (configuration not stated)	24.4% (inactive)
COc1cc2ncnc(-n3ncc4cc(NC(=O)Nc5ccccc5)ccc43)c2cc1OC	5.95% (active)
CCCCCC(=C/c1ccccc1)/C=N/N=C(N)N	-63.3% (active)
Cc1nc(N)sc1C(=O)NCCO	118% (inactive)
CCCCCc1ccnc(CC(=O)c2ccc(OC)cc2)c1	108% (inactive)
CC(C)C(=O)c1ccc(Cl)s1	96.2% (inactive)
Oc1ccccc1\C=N/N=C/C=C/c1ccccc1	101% (inactive)
COc1cc(OC)c(/C=C/c2ccc3ccccc3[n+]2C)c(OC)c1	14.8% (inactive)
CCOC(=O)C1CCCN1C(=O)C1(NC(C)=O)CCCC1 (configuration not stated)	96.8% (inactive)
